- Target: Renilla luciferase (Renilla reniformis)
- Method Description: Quaternary ammonium/phosphonium detergent screen, Renilla luciferase (Example 5)
- Type: biochemical
- Settings: final conc. 0.10% detergent; Tergitol NP-9 present
Measured Metric: Retained Renilla Luciferase Luminescence (%)
Field note: include the unit after the figure.

C[N+](C)(Cc1ccccc1)c1ccccc1.[Br-] [Benzyldimethylphenylammonium bromide]
81%

Okay, now this molecule:
// lookup Retained Renilla Luciferase Luminescence (%) for C[N+](C)(C)Cc1ccccc1.[I-] [Bezyltrimethylammonium iodide]
97%

----------
- Target: Renilla luciferase (Renilla reniformis, UniProt P27652)
- Sequence (P27652 1-311): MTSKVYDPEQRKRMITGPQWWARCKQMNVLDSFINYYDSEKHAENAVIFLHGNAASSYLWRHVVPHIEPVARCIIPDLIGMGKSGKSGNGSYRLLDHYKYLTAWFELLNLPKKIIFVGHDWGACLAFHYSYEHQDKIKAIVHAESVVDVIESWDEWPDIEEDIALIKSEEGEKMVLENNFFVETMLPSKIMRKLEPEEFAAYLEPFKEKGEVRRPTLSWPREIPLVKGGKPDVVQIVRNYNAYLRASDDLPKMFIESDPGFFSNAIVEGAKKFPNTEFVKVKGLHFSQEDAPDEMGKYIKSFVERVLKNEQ
- Method Description: Detergent screen with Tergitol NP-9, Renilla luciferase (Example 3)
- Assay type: biochemical
- Settings: 0.06% quencher in reagent solution; 0.5% Tergitol NP-9
Measured Metric: Retained Renilla Luminescence (%)
# number only, unit % dropped from output

The following compounds have reported results that may help.
CCCCCC[N+](C)(C)Cc1ccccc1.[Br-]
54
C[N+](C)(Cc1ccccc1)C1CCCCC1.[Br-]
76
CCCCCCCCCCCC[N+](C)(C)Cc1ccc(C(=O)[O-])cc1 [Compound 1424]
20.0
CCCCCCCCCCCC[N+](C)(C)Cc1ccc2c(c1)CCCC2.[Cl-]
118.0
CCCCCCCCCCCC[N+](C)(C)Cc1ccccc1-c1ccccc1.[Br-]
0.8

// lookup Retained Renilla Luminescence (%) for `CCCCCCCCCCCCOCC[N+](C)(C)Cc1ccccc1.[Cl-]`
20.5

And the next one, `CCCCCCCCCCCC[N+](C)(C)C1c2ccccc2-c2ccccc21.[Br-]` ?
1

And the next one, CCCCCCCCCCCC[N+](C)(C)Cc1ccccc1.[Br-] [Benzyldimethyldodecylammonium bromide] ?
22
